meta.source: patent US20250154144A1

Tested on: THP1 cells
experiment.description: Combination drug screening, Cell Titer Glo, 10 × 10 matrix, THP1 cells
Type: cell-based
conditions.used: THP1 cells, 10 × 10; combination with Venetoclax (ABT-199)
Kindly supply the reported Excess HSA Score values for the records listed here.

Request the reported Excess HSA Score associated with COc1ccn2c(-c3ccnc(N[C@H]4CNC[C@@H]4F)n3)cnc2c1 [Compound 28]
−1412

Request the reported Excess HSA Score associated with COc1cc2ncc(-c3cncc(N[C@H]4CNCC[C@@H]4F)n3)n2nc1C1CC1 [Compound 24]
−2203

Request the reported Excess HSA Score associated with CC(O)(c1cn2c(-c3ccnc(N[C@H]4CNCC[C@@H]4F)n3)cnc2cn1)C(F)(F)F (single isomer, unassigned) [Compound 72]
−1130

Request the reported Excess HSA Score associated with COc1cc2ncc(-c3ccnc(N[C@@H]4CCCNC4)n3)n2nc1C1CC1 [Compound 50]
−2869

Request the reported Excess HSA Score associated with F[C@H]1CCNC[C@@H]1Nc1cncc(-c2cnc3cc(OC4CC4)ccn23)n1 [Compound 12]
−1564

Request the reported Excess HSA Score associated with FC(F)COc1ccn2c(-c3ccnc(N[C@H]4CNCC[C@@H]4F)n3)cnc2c1 [Compound 33]
−1595

Request the reported Excess HSA Score associated with COc1cc2ncc(-c3ccnc(N[C@H]4CNCC[C@@H]4F)n3)n2cc1C(C)(C)O [Compound 45]
−360.8

----------
Kindly supply the reported pKd values for the records listed here.
Worth noting: pKd values are minus log10 of concentrations stated in mol/L.

Param readout= pKd; system= IRAK1 (Homo sapiens); entry= `F[C@H]1CCNC[C@@H]1Nc1cncc(-c2cnc3cc(OC4CC4)ccn23)n1` ; returns value.
8.12

Param readout= pKd; system= IRAK1 (Homo sapiens); entry= `COc1cc2ncc(-c3cncc(N[C@H]4CNC[C@@H]4F)n3)n2nc1C1CC1` ; returns value.
8.19

Param readout= pKd; system= IRAK1 (Homo sapiens); entry= `COc1cc2ncc(-c3ccnc(N[C@H]4CNCC[C@@H]4F)n3)n2nc1C1CC1` ; returns value.
8.62

Param readout= pKd; system= IRAK1 (Homo sapiens); entry= `COc1cc2ncc(-c3ccnc(N[C@H]4CNC[C@@H]4F)n3)n2cc1C(C)(C)O` ; returns value.
9.48

Param readout= pKd; system= IRAK1 (Homo sapiens); entry= `COc1cc2ncc(-c3ccnc(N[C@@H]4CCCNC4)n3)n2cc1C(C)(C)O` ; returns value.
9.52

Param readout= pKd; system= IRAK1 (Homo sapiens); entry= CC(O)(c1cn2c(-c3ccnc(N[C@H]4CNCC[C@@H]4F)n3)cnc2cn1)C(F)(F)F (single isomer, unassigned) ; returns value.
8.82

Param readout= pKd; system= IRAK1 (Homo sapiens); entry= `COc1cc2ncc(-c3ccnc(N[C@H]4CNC[C@@H]4F)n3)n2nc1C1CC1` ; returns value.
8.59

----------
measured.target: UniProt P51617
experiment.description: RBC HotSpot Kinase Assay, IRAK1
conditions.used: read-out: IRAK1 IC50
recorded.metric: IC50

Request the reported IC50 associated with COc1cc2ncc(-c3ccnc(N[C@H]4CNC[C@@H]4F)n3)n2cc1C(C)(O)C(F)(F)F (single isomer, unassigned)
< 0.5 nM

----------
measured.target: FLT3 ITD, F691L (Homo sapiens, UniProt P36888, F691L, form not given)
experiment.description: DiscoverX KINOMEscan competition binding, FLT3 ITD, F691L
conditions.used: read-out: FLT3 ITD, F691L Kd
recorded.metric: pKd
Worth noting: pKd values are minus log10 of concentrations stated in mol/L.

Request the reported pKd associated with `COc1cc2ncc(-c3cncc(N[C@H]4CNC[C@@H]4F)n3)n2nc1C1CC1`
10.11

Request the reported pKd associated with `F[C@H]1CCNC[C@@H]1Nc1cncc(-c2cnc3cc(OC4CC4)ccn23)n1`
10.34

Request the reported pKd associated with `COc1cc2ncc(-c3ccnc(N[C@@H]4CCCNC4)n3)n2cc1C(C)(C)O`
10.04

Request the reported pKd associated with `COc1cc2ncc(-c3ccnc(N[C@H]4CNCC[C@@H]4F)n3)n2nc1C1CC1`
10.10
